Entry source: patent US7094869B2

Test system: growth hormone secretion
EXPERIMENTAL DETAILS: GHRP induced growth hormone secretion, intravenous administration (Rat IV)
Type: in vivo
REPORTED CONDITIONS: Table III; iv injection, serum GH 10 min after injection
Description: Immature weanling female Sprague Dawley rats were purchased from Charles River Labs (Portage, […].) and group housed with water and food available ad libitum. When the rats were 24-30 days old (weighing 50-90 g) they were anesthetized with pentobarbitone (4 mg in 0.5 ml, approximately 60 mg/kg) given by intraperitoneal injection. […]
Non-standard residues stand in square brackets, D forms with d. Residues, ends and D or L forms follow the SMILES beside them. ξ: configuration not given here. d2Nal = N[C@H](Cc1ccc2ccccc2c1)C(=O)O; ξ2Nal = NC(Cc1ccc2ccccc2c1)C(=O)O; Inp = O=C(O)C1CCNCC1; ξK = NCCCCC(N)C(=O)O; Ahp = NCCCCCCC(=O)O; Ava = NCCCCC(=O)O; GABA = NCCCC(=O)O
Reported RAT IV ED50 values are given for each entry in this list.
Please answer using the number first and the unit second.

These solved cases illustrate the format of a correct answer.
NCCCCC(=O)N[C@H](Cc1ccc2ccccc2c1)C(=O)N[C@H](Cc1ccc2ccccc2c1)C(=O)N[C@@H](Cc1ccccc1)C(=O)N[C@H](CCCCN)C(N)=O [(Ava) b b F k amide] (H-[Ava][d2Nal][d2Nal]F[dK]-NH2)    33.3 µg
NCCCCC(=O)N[C@H](Cc1ccc2ccccc2c1)C(=O)N[C@H](Cc1ccc2ccccc2c1)C(=O)N[C@@H](Cc1ccccc1)C(=O)N[C@H](CC(N)=O)C(N)=O [(Ava) b b F n amide] (H-[Ava][d2Nal][d2Nal]F[dN]-NH2)    12.5 µg
NCCCCC(NC(=O)[C@H](Cc1ccccc1)NC(=O)[C@@H](Cc1ccc2ccccc2c1)NC(=O)C(Cc1ccc2ccccc2c1)NC(=O)CCCN)C(N)=O (stereo partly drawn) [(Ab) b b F K amide] (H-[GABA][ξ2Nal][d2Nal]F[ξK]-NH2)    1 µg

Problem: Kindly state the measured RAT IV ED50 obtained for C[C@@H](N)C(=O)N[C@H](Cc1ccc2ccccc2c1)C(=O)N[C@H](Cc1ccc2ccccc2c1)C(=O)N[C@@H](Cc1ccccc1)C(=O)N[C@@H](CCCCN)C(N)=O [a b b F K amide] (H-[dA][d2Nal][d2Nal]FK-NH2) with growth hormone secretion.
Solution: 10 µg

Problem: // query: NCCCCCCC(=O)N[C@H](Cc1ccc2ccccc2c1)C(=O)N[C@H](Cc1ccc2ccccc2c1)C(=O)N[C@@H](Cc1ccccc1)C(=O)N[C@@H](CCCCN)C(N)=O [(ahp) b b F K amide] (H-[Ahp][d2Nal][d2Nal]FK-NH2)
Solution: 100 µg

Problem: // query: NCCCC[C@H](NC(=O)[C@H](Cc1ccccc1)NC(=O)[C@@H](Cc1c[nH]c2ccccc12)NC(=O)[C@@H](Cc1ccc2ccccc2c1)NC(=O)C1CCNCC1)C(N)=O [(inip) b w F K amide] (H-[Inp][d2Nal][dW]FK-NH2)
Solution: 0.070 µg
